Source: patent US10919885B2

Answer each item with its documented IC50.
biological target: human SCD1 (Homo sapiens (Human), UniProt O00767); assay: Yeast growth assay, strain expressing human SCD1 as the sole desaturase (reduced growth as surrogate for SCD inhibition); settings: yeast with OLE1 deleted expressing human SCD1 from a plasmid; growth read as OD600 after 40 h at 30° C.; top drug concentration 33.3 μM
Sequence (O00767 whole entry): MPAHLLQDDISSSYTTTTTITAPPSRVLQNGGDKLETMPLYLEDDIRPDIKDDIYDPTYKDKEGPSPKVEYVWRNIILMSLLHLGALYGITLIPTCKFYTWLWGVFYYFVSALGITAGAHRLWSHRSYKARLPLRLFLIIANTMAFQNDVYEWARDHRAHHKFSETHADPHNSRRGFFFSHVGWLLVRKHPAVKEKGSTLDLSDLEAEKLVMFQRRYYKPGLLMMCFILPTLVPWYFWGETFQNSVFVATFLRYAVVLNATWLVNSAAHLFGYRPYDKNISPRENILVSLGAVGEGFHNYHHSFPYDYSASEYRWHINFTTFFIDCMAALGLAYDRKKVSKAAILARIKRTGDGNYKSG

input: Which IC50 is reported for this compound? `O=C(c1cc(-c2ccc3c(c2)OCO3)on1)N1CCC[C@H]1c1ccccc1`
output: 33.5 µM

input: Which IC50 is reported for this compound? `O=C(Nc1cnn(Cc2ccc(F)cc2)c1)c1cc(-c2ccco2)on1`
output: > 45 µM

input: Which IC50 is reported for this compound? COc1cccnc1C1CCCN1C(=O)c1cc(-c2ccc3c(c2)OCO3)on1 (centres unmarked)
output: > 45 µM

input: Which IC50 is reported for this compound? `CN(C(=O)c1cc(-c2ccccc2)on1)c1cnn(Cc2cc(F)ccc2C(F)(F)F)c1`
output: > 45 µM

input: Which IC50 is reported for this compound? `CC(C)(C)OC(=O)Nc1cc(C(=O)Nc2cnn(Cc3ccccc3)c2)no1`
output: 5.8 µM

input: Which IC50 is reported for this compound? `O=C(Nc1cn(Cc2ccccc2)nn1)c1cc(-c2ccccc2)on1`
output: > 45 µM

input: Which IC50 is reported for this compound? `N#Cc1nn(Cc2ccccc2)cc1NC(=O)c1cc(-c2ccccc2)on1`
output: > 45 µM

input: Which IC50 is reported for this compound? `O=C(c1cc(-c2ccc3c(c2)OCO3)on1)N1CCN(c2cc(F)ccc2Cl)CC1`
output: > 45 µM

* * *

target: human SCD1 (Homo sapiens (Human), UniProt O00767); test: Yeast growth assay, strain expressing human SCD1 as the sole desaturase (reduced growth as surrogate for SCD inhibition); details: yeast with OLE1 deleted expressing human SCD1 from a plasmid; growth read as OD600 after 40 h at 30° C.; top drug concentration 33.3 μM
Answer each item with its documented pIC50.
Bear in mind: pIC50 is minus log10 of a mol/L concentration; give just that figure.

input: Which pIC50 is reported for this compound? `O=C(Nc1cnn(Cc2cnccc2C(F)(F)F)c1)c1noc2c1CCCC2`
output: 4.60

input: Which pIC50 is reported for this compound? `COc1ccc(-c2cc(C(=O)N3CCC[C@H]3c3ccccc3)no2)cn1`
output: 4.57

input: Which pIC50 is reported for this compound? `O=C(Nc1cnn(Cc2ccccc2F)c1)c1cc(-c2ccccc2)on1`
output: 5.03

* * *

Answer each item with its documented pIC50.
biological target: human SCD5 (Homo sapiens (Human), UniProt Q86SK9); assay: Yeast growth assay, strain expressing human SCD5 as the sole desaturase (reduced growth as surrogate for SCD inhibition); conditions: yeast with OLE1 deleted expressing human SCD5 from a plasmid; growth read as OD600 after 40 h at 30° C.; top drug concentration 33.3 μM
Sequence (Q86SK9 whole entry): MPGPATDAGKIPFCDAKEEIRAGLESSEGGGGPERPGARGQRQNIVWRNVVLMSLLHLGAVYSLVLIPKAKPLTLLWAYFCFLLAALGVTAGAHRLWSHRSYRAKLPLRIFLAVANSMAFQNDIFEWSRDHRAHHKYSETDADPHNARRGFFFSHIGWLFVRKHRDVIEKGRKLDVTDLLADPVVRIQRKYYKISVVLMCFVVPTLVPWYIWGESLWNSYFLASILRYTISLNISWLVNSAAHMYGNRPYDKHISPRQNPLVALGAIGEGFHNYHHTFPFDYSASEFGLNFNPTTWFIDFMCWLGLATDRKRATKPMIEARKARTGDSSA
Bear in mind: pIC50 is minus log10 of a mol/L concentration; give just that figure.

input: Form: Entry = O=C(c1noc2c1CCCC2)N1CC(c2ccccc2)C1 [Compound 252] | System = human SCD5 (Homo sapiens (Human), UniProt Q86SK9) | pIC50 = ____
output: 5.12

input: Form: Entry = O=C(c1cc(-c2ccc3c(c2)OCO3)on1)N1CCC1c1cccc(F)c1 (stereo not drawn) [Compound 220] | System = human SCD5 (Homo sapiens (Human), UniProt Q86SK9) | pIC50 = ____
output: 5.53

input: Form: Entry = O=C(c1cc(-c2ccco2)on1)N1CCC(c2ccccc2)C1 (stereo not drawn) [Compound 338] | System = human SCD5 (Homo sapiens (Human), UniProt Q86SK9) | pIC50 = ____
output: 5.55

input: Form: Entry = O=C(c1cc(-c2ccncc2)on1)N1CC(c2ccccc2)C1 [Compound 229, trifluoroacetic acid] | System = human SCD5 (Homo sapiens (Human), UniProt Q86SK9) | pIC50 = ____
output: 5.14

* * *

Answer each item with its documented IC50.
biological target: human SCD1 (Homo sapiens (Human), UniProt O00767); experiment: Yeast growth assay, strain expressing human SCD1 as the sole desaturase (reduced growth as surrogate for SCD inhibition); assay type: cell-based; conditions: yeast with OLE1 deleted expressing human SCD1 from a plasmid; growth read as OD600 after 40 h at 30° C.; top drug concentration 33.3 μM

input: Which IC50 is reported for this compound? `O=C(Nc1cnn(Cc2ccccc2)c1)c1cc(-c2ccccc2F)no1`
output: > 45 µM

input: Which IC50 is reported for this compound? `O=C(Nc1cnn(Cc2cccc(F)c2)c1)c1cc(C2COC2)on1`
output: 0.737 µM

input: Which IC50 is reported for this compound? `COc1ccc(-c2cc(C(=O)N3CC(c4ccccc4)C3)no2)nc1`
output: 0.264 µM

input: Which IC50 is reported for this compound? `O=C(c1cc(-c2ccccc2)on1)N1CCC[C@@H]1c1ccccc1`
output: > 45 µM

input: Which IC50 is reported for this compound? O=C(c1cc(-c2ccccc2)on1)N1CCC(c2ccccc2)C1 (stereo not shown)
output: > 45 µM

input: Which IC50 is reported for this compound? `COc1ccc(-c2cc(C(=O)N3CCN(c4ccccc4)CC3)no2)cc1OC`
output: > 45 µM

input: Which IC50 is reported for this compound? `O=C(Nc1cnn(Cc2cccc(F)c2)c1)c1cc(-c2ccncc2)on1`
output: 2.41 µM

input: Which IC50 is reported for this compound? `O=C(c1cc(-c2ccccn2)on1)N1CCC(c2ccccc2)CC1`
output: > 45 µM

input: Which IC50 is reported for this compound? COc1cccc(F)c1C1CCCN1C(=O)c1cc(-c2ccc3c(c2)OCO3)on1 (stereo not shown)
output: > 45 µM

input: Which IC50 is reported for this compound? `O=C(Nc1cnn(Cc2cnccc2C(F)(F)F)c1)c1cc(-c2ccccc2)on1`
output: > 45 µM

* * *

Answer each item with its documented IC50.
target: human SCD5 (Homo sapiens (Human)); assay: Yeast growth assay, strain expressing human SCD5 as the sole desaturase (reduced growth as surrogate for SCD inhibition); conditions: yeast with OLE1 deleted expressing human SCD5 from a plasmid; growth read as OD600 after 40 h at 30° C.; top drug concentration 33.3 μM

input: Which IC50 is reported for this compound? `CNC(=O)c1ccc(-c2cc(C(=O)N3CC=C(c4ccccc4)CC3)no2)cc1`
output: > 45 µM

input: Which IC50 is reported for this compound? CN(C)CC(c1ccccc1)n1cc(NC(=O)c2cc(-c3ccccc3)on2)cn1 (stereo not drawn)
output: > 45 µM

input: Which IC50 is reported for this compound? Cc1cnoc1C1CCCN1C(=O)c1cc(-c2ccc3c(c2)OCO3)on1 (stereo not drawn)
output: > 45 µM

input: Which IC50 is reported for this compound? COc1ccc(C2CCCN2C(=O)c2cc(-c3ccc(OC)c(OC)c3)on2)cc1 (stereo not drawn)
output: > 45 µM

input: Which IC50 is reported for this compound? `CN1CCN(c2cc(C(=O)Nc3cnn(Cc4ccccc4)c3)no2)CC1`
output: > 45 µM

input: Which IC50 is reported for this compound? `O=C(c1cc(-c2ccccc2)on1)N1CCC(c2cccnc2)CC1`
output: > 45 µM

input: Which IC50 is reported for this compound? `O=C(Nc1cnn(Cc2ccccc2)c1)c1cc(-c2ccccc2F)no1`
output: > 45 µM

input: Which IC50 is reported for this compound? `COc1cccc(N2CCN(C(=O)c3cc(-c4ccc5c(c4)OCO5)on3)CC2)c1`
output: 4.71 µM

input: Which IC50 is reported for this compound? O=C(c1cc(-c2ccccc2)on1)N1CCC(c2ccc(F)cc2)C1 (stereo not drawn)
output: > 45 µM

input: Which IC50 is reported for this compound? `CNC(=O)c1ccccc1-c1cc(C(=O)N2CCC(c3ccccc3)CC2)no1`
output: 6.58 µM

input: Which IC50 is reported for this compound? `O=C(Nc1cnn(Cc2cccc(F)c2)c1)c1cc(-c2ccccc2)on1`
output: > 45 µM

input: Which IC50 is reported for this compound? `O=C(Nc1cnn(Cc2ccccc2)c1)c1cc(-c2ccncc2)on1`
output: 7 µM

input: Which IC50 is reported for this compound? `COc1ccc(Cn2cc(NC(=O)c3cc(-c4ccccc4)on3)cn2)cc1`
output: > 45 µM

input: Which IC50 is reported for this compound? `O=C(NC1CN(C(=O)c2cc(-c3ccccc3)on2)C1)c1ccccc1`
output: > 45 µM

input: Which IC50 is reported for this compound? `O=C(Nc1cnn(Cc2cccc(F)c2)c1)c1cc(C2COC2)on1`
output: 6.97 µM

input: Which IC50 is reported for this compound? O=C(c1cc(-c2ccc3c(c2)OCO3)on1)N1CCCC1c1ncccc1Br (stereo not drawn)
output: > 45 µM

input: Which IC50 is reported for this compound? `O=C(c1cc(-c2ccc3ncnn3c2)on1)N1CCC[C@H]1c1ccccc1`
output: > 45 µM

input: Which IC50 is reported for this compound? O=C(c1cc(-c2ccc3c(c2)OCO3)on1)N1CCCC1Cc1ccccc1 (stereo not drawn)
output: 4.67 µM
